These data points were gathered from PubChem BioAssay AID581.

SUBJECT OF TEST: Cathepsin G (Homo sapiens) (UniProt P08311)
Sequence (P08311 21-244 limits assumed): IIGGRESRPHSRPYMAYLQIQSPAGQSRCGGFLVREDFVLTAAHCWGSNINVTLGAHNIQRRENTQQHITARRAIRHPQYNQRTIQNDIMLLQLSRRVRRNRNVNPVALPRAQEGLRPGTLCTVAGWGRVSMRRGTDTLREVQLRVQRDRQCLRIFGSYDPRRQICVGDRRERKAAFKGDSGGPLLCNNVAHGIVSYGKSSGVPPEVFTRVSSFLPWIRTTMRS
EXPERIMENT: human cathepsin G inhibitors, primary screen, biochemical, pooled compound mixtures, AMC fluorescence (AID 581);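 also: 0% = enzyme control without mixture and 100% = blank lacking enzyme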
CONDITION SUMMARY: purified enzyme, AMC-tetrapeptide fluorescence, stronger effect = higher value, screened at 5 µM (by protocol)
Among all 62,000 compounds or so, about 95 (0.2%) were called active. The list comes from a sample in which actives are over-represented; it also holds close analogues and randomly drawn compounds.
The reader will find reported inhibition values listed item by item below.

# MOLECULE, SUBJECT OF TEST, inhibition [%]
data = [
    ("COCCCNC(=O)CCc1nc2cccnc2n1Cc1ccc(OC)cc1", "Cathepsin G (Homo sapiens) (UniProt P08311)", 11.7),
    ("Cc1noc(C)c1C(=O)Nc1ccccn1", "Cathepsin G (Homo sapiens) (UniProt P08311)", -18.6),
    ("CCCc1nc2ccccc2c(=O)n1/N=C/c1ccc(O)c(O)c1", "Cathepsin G (Homo sapiens) (UniProt P08311)", 2.2),
    ("O=C(CN1CCOCC1)N1CCCc2c1c(=O)oc1ccc(OCc3ccccc3)cc21", "Cathepsin G (Homo sapiens) (UniProt P08311)", -5.32),
    ("COc1cc2[nH]c(=S)n(Cc3ccc(C)o3)c(=O)c2cc1OC", "Cathepsin G (Homo sapiens) (UniProt P08311)", -0.64),
    ("CCCOc1ccc(N2CC(C(=O)Nc3ccccn3)CC2=O)cc1 (stereo not drawn)", "Cathepsin G (Homo sapiens) (UniProt P08311)", 1.22),
    ("Cc1ccc(CNC(=O)C2CCCN(S(C)(=O)=O)C2)cc1 (stereo not drawn)", "Cathepsin G (Homo sapiens) (UniProt P08311)", -3.54),
    ("COc1cccc(N(C(=O)c2ccn[nH]2)C2(C(=O)Nc3c(C)cccc3C)CCCCC2)c1", "Cathepsin G (Homo sapiens) (UniProt P08311)", 8.21),
    ("CC(C)(C)n1nnnc1C(c1ccc2ncccc2c1)N1CCSCC1 (stereo not drawn)", "Cathepsin G (Homo sapiens) (UniProt P08311)", -7),
    ("CN1CCN(c2nc3c(c(=O)[nH]c(=O)n3C)n2Cc2cccc3ccccc23)CC1", "Cathepsin G (Homo sapiens) (UniProt P08311)", 14.6),
    ("O=C1N(Cc2ccc3c(c2)OCO3)c2ccccc2C1(O)c1c[nH]c2ccccc12 (stereo not drawn)", "Cathepsin G (Homo sapiens) (UniProt P08311)", 1.27),
    ("Cc1cc(Br)ccc1NC(=O)C1CCCO1 (stereo not drawn)", "Cathepsin G (Homo sapiens) (UniProt P08311)", 9.61),
    ("Cc1c(C(=O)OCC(=O)N(CCC#N)c2ccccc2)oc2c1ccc1ccccc12", "Cathepsin G (Homo sapiens) (UniProt P08311)", 10.9),
    ("CC(=O)CCS(=O)(=O)c1ccc(C)c(C)c1", "Cathepsin G (Homo sapiens) (UniProt P08311)", -14.8),
    ("N#Cc1c(/N=C/N2CCCC2)oc(-c2ccccc2)c1-c1ccccc1", "Cathepsin G (Homo sapiens) (UniProt P08311)", 9.67),
    ("c1ccc2cc(OCCN3CCCC3)ccc2c1", "Cathepsin G (Homo sapiens) (UniProt P08311)", -4.75),
    ("O=C(CCN1C(=O)C2C3C=CC(C3)C2C1=O)Nc1ccccc1F (stereo not drawn)", "Cathepsin G (Homo sapiens) (UniProt P08311)", 6.93),
    ("COc1ccc(C(=O)Nc2ccc(S(=O)(=O)Nc3onc(C)c3C)cc2)cc1OC", "Cathepsin G (Homo sapiens) (UniProt P08311)", -6.97),
    ("O=C1CCc2cc(S(=O)(=O)N3CCC(C(=O)NCc4ccccc4Cl)CC3)ccc2N1", "Cathepsin G (Homo sapiens) (UniProt P08311)", 11),
    ("Cc1nc(-c2ccc(NC(=O)c3cccs3)cc2)cs1", "Cathepsin G (Homo sapiens) (UniProt P08311)", 8.02),
    ("CCc1nc(Nc2ccc3nccnc3c2)c2oc3ccccc3c2n1", "Cathepsin G (Homo sapiens) (UniProt P08311)", -2.89),
    ("Cc1cc(NC(=O)CN2CCC(O)(c3cccc(F)c3)CC2)no1", "Cathepsin G (Homo sapiens) (UniProt P08311)", 5.96),
    ("Cc1cccc(NC(=O)C2CCN(S(=O)(=O)c3cccc4cccnc34)CC2)c1", "Cathepsin G (Homo sapiens) (UniProt P08311)", 10.6),
]
